test: Phase 1 crossover study: AZD5718 plasma pharmacokinetics; format: in vivo, human; conditions: male, human, plasma, oral, 200 mg, AZD5718 Cmax, arithmetic mean (SD), 200 mg suspension, fasted, n = 12
Measurement Label: Cmax (nM)
Write the number in nM without appending the unit.

For the molecule Cc1cc(-c2ccc(C(=O)[C@@H]3CCCC[C@H]3C(=O)Nc3cnn4c3C(=O)NCC4)cc2)n[nH]1 [AZD5718] , report Cmax. 1250

* * *

assay: Phase 1 crossover study: AZD5718 plasma pharmacokinetics; type: in vivo, human; details: human, plasma, oral, AZD5718 tmax, median (range), 200 mg tablet plus rosuvastatin 10 mg, fasted, n = 12
Measurement Label: Tmax

Identify measured Tmax corresponding to Cc1cc(-c2ccc(C(=O)[C@@H]3CCCC[C@H]3C(=O)Nc3cnn4c3C(=O)NCC4)cc2)n[nH]1 2.01 h

* * *

Test: Phase 1 crossover study: rosuvastatin plasma pharmacokinetics
Format: in vivo, human
Conditions: human, plasma, oral, 10 mg, rosuvastatin 10 mg alone, fasted, n = 9; read-out: Rosuvastatin AUC0-inf, geometric mean (%CV)
Procedure: The primary objective was to evaluate the pharmacokinetics of oral rosuvastatin when administered alone and in combination with oral AZD5718. […] Rosuvastatin pharmacokinetics were analyzed using a mixed-effects model, with log-transformed AUC, AUC0-last, and Cmax as the response variables; treatment sequence, period, and treatment as fixed effects; and participant nested within treatment sequence as a random effect. […]
Measurement Label: AUC(0-inf) (ng·h/mL)
Entry rule: numbers only, all in ng·h/mL.

Write down AUC(0-inf) measured for item CC(C)c1nc(N(C)S(C)(=O)=O)nc(-c2ccc(F)cc2)c1/C=C/[C@@H](O)C[C@@H](O)CC(=O)O 41

* * *

experiment: Phase 1 crossover study: rosuvastatin plasma pharmacokinetics; type: in vivo, human; settings: human, plasma, oral, 10 mg, rosuvastatin 10 mg alone, fasted, n = 12; read-out: Rosuvastatin Cmax, geometric mean (%CV)
Measurement Label: Cmax (ng/mL)
Report the value in ng/mL with no unit label.

Supply reported Cmax belonging to this molecule: CC(C)c1nc(N(C)S(C)(=O)=O)nc(-c2ccc(F)cc2)c1/C=C/[C@@H](O)C[C@@H](O)CC(=O)O [Rosuvastatin, rosuvastatin] 4.59

* * *

experiment: Phase 1 crossover study: AZD5718 plasma pharmacokinetics; assay type: in vivo, human; settings: male, human, plasma, oral, AZD5718 Cmax, arithmetic mean (SD), 200 mg tablet plus rosuvastatin 10 mg, fasted, n = 12
Measurement Label: Cmax (nM)
Answer with a number only, understood to be in nM.

For the compound Cc1cc(-c2ccc(C(=O)[C@@H]3CCCC[C@H]3C(=O)Nc3cnn4c3C(=O)NCC4)cc2)n[nH]1 , give its reported Cmax. 567

* * *

assay: Phase 1 crossover study: AZD5718 plasma pharmacokinetics; assay type: in vivo, human; conditions: human, plasma, oral, 200 mg, AZD5718 AUC0-inf, geometric mean (%CV), 200 mg tablet, fasted, n = 10
Measurement Label: AUC(0-inf) (µM·h)
The figure you give is taken to be in µM·h; do not add the unit.

Fill in reported AUC(0-inf) for this entry: Cc1cc(-c2ccc(C(=O)[C@@H]3CCCC[C@H]3C(=O)Nc3cnn4c3C(=O)NCC4)cc2)n[nH]1 3.56

* * *

assay: Phase 1 crossover study: rosuvastatin plasma pharmacokinetics; assay type: in vivo, human; conditions: human, plasma, oral, 10 mg, rosuvastatin 10 mg alone, fasted, n = 9; read-out: Rosuvastatin t1/2 lambda z, arithmetic mean (SD) (converted)
Measurement Label: half-life (h)
Provide the reading as a plain figure in h.

Consider the compound CC(C)c1nc(N(C)S(C)(=O)=O)nc(-c2ccc(F)cc2)c1/C=C/[C@@H](O)C[C@@H](O)CC(=O)O . State its measured half-life. 16

Reference source for all entries: paper PMC7187334
